pIC50: −log10 of the molar value.
Lysine-specific demethylase 4C (Homo sapiens) pIC50, compiled from various sources.

Problem: Name the reported pIC50 value associated with the compound CC(C)CCn1cc(Oc2nc(O)c3ccnc(-c4cn(C)cn4)c3n2)cn1
Solution: 6.00 to 7.00

Problem: Entry CN(c1ccc(Cl)cc1)c1ccc2c(c1)OCC[C@H]2CNc1cnccc1C(=O)O please
Solution: 6.00 to 7.00

Problem: Entry O=C(O)c1ccnc(-n2nccc2-c2ccc(F)cc2F)c1 please
Solution: 6.00 to 7.00

Problem: Entry Oc1nc(OC2CCCc3ccccc32)nc2cnccc12 (stereo not drawn) please
Solution: 5.00 to 6.00

Problem: Entry O=C(O)c1ccncc1NCC1CCCc2cc(Oc3ccccc3C(F)(F)F)ccc21 (stereo not drawn) please
Solution: 5.00 to 6.00

Problem: Entry CC(C)c1cccc(N(C)c2ccc(Oc3nc(O)c4ccncc4n3)cc2)c1 please
Solution: 6.00 to 7.00

====

Lysine-specific demethylase 4C (Homo sapiens, UniProt Q9H3R0) IC50, compiled from various sources.

Problem: Name the reported IC50 value associated with the molecule COc1cc(Cl)ccc1CNc1cnccc1C(=O)O
Solution: 100 to 1000 nM

Problem: Entry Cn1cnc(-c2cc(C(=O)O)ccn2)c1-c1ccc(Cl)c(C(F)(F)F)c1 please
Solution: 100 to 1000 nM

Problem: Entry O=C(O)c1ccnc(-c2cn(CCN3CCCc4cc(F)ccc43)cn2)c1 please
Solution: 100 to 1000 nM

Problem: Entry O=C(O)c1ccncc1NC[C@@H]1CCCc2ccccc21 please
Solution: 100 to 1000 nM

Problem: Entry O=C(O)c1ccnc(-c2cn(CCN3CCCC3)cn2)c1 please
Solution: ≤ 100 nM

Problem: Entry CCc1ccc(N(C)c2ccc(Oc3nc(O)c4ccncc4n3)cc2)c(OC)c1 please
Solution: 100 to 1000 nM

Problem: Entry CN(c1ccc(CCO)cc1)c1ccc2c(c1)OCC[C@H]2CNc1cnccc1C(=O)O please
Solution: 100 to 1000 nM

Problem: Entry O=C(O)c1ccncc1NC[C@H]1CCOc2cc(C3CC3)ccc21 please
Solution: ≤ 100 nM

Problem: Entry O=C(O)c1ccncc1NCC1CCOc2cc(-c3ccoc3)ccc21 (centres unmarked) please
Solution: 100 to 1000 nM

Problem: Entry O=C(O)c1ccncc1NCc1ccccc1F please
Solution: ≤ 100 nM

Problem: Entry CC(C)c1ccc(N(C)c2ccc(Oc3nc(O)c4ccncc4n3)cc2)nc1 please
Solution: ≤ 100 nM

Problem: Entry Cc1nn(-c2cc(C(=O)O)ccn2)c(O)c1-c1ccccc1 please
Solution: 1000 to 10000 nM

Problem: Entry O=C(O)c1ccnc(-n2nccc2OCc2cccc(Br)c2)c1 please
Solution: < 100 nM

Problem: Entry O=C(O)c1ccncc1Nc1noc2ccccc12 please
Solution: < 100 nM

Problem: Entry Oc1nc(Oc2ccc3cnn(Cc4ccccc4)c3c2)nc2cnccc12 please
Solution: 100 to 1000 nM

Problem: Entry CN(Cc1ccccc1)c1cccc(Oc2nc(O)c3ccncc3n2)c1 please
Solution: 1000 to 10000 nM

Problem: Entry Cn1cnc(-c2cc(-c3nn[nH]n3)ccn2)c1-c1ccc(F)c(O)c1 please
Solution: 1000 to 10000 nM

Problem: Entry CN(c1ccc(N2CCCC2)cc1)c1ccc2c(c1)OCC[C@H]2CNc1cnccc1C(=O)O please
Solution: 100 to 1000 nM

Problem: Entry Oc1nc(OCc2cccc(F)c2F)nc2cnccc12 please
Solution: ≤ 100 nM

Problem: Entry CCCn1cc(Oc2nc(O)c3ccncc3n2)cn1 please
Solution: 100 to 1000 nM

Problem: Entry O=C(O)c1ccnc(-n2nccc2OCC2CCC(F)(F)CC2)c1 please
Solution: 100 to 1000 nM

Problem: Entry Cn1cnc(-c2cc(C(=O)O)ccn2)c1-c1ccc(OC(F)(F)F)cc1 please
Solution: 1000 to 10000 nM

Problem: Entry C=CC(=O)N1CCC(n2cc(Oc3nc(O)c4ccncc4n3)cn2)CC1 please
Solution: 100 to 1000 nM

Problem: Entry Cn1cnc(-c2cc(-c3nn[nH]n3)ccn2)c1 please
Solution: > 10000 nM

Problem: Entry Oc1nc(OC2CCc3ccccc32)nc2cnccc12 (centres unmarked) please
Solution: 1000 to 10000 nM

Problem: Entry O=S(=O)(C1CC1)N1CCC(n2cc(Oc3nc(O)c4ccncc4n3)cn2)CC1 please
Solution: ≤ 100 nM

Problem: Entry CN1CCC(CNc2cnccc2C(=O)O)c2ccccc21 (centres unmarked) please
Solution: 100 to 1000 nM

Problem: Entry CN(c1ccc(C2CCOCC2)cc1)c1ccc2c(c1)OCC[C@H]2CNc1cnccc1C(=O)O please
Solution: 100 to 1000 nM

Problem: Entry O=C(O)c1ccnc(-c2cn(Cc3ccccn3)cn2)c1 please
Solution: 100 to 1000 nM

====

Lysine-specific demethylase 4C (Homo sapiens, UniProt Q9H3R0) IC50, compiled from various sources.

Problem: API: value(readout= IC50, system= Lysine-specific demethylase 4C (Homo sapiens, UniProt Q9H3R0), query= Oc1nc(Oc2cccc(F)c2F)nc2cnccc12 )
Solution: 0.1 to 1 µM

Problem: Entry CCCN(c1ccc(Oc2nc(O)c3ccncc3n2)cc1)c1ccc(C(C)C)cc1 please
Solution: 0.1 to 1 µM

Problem: Entry Oc1nc(Oc2cnn(C3CCNCC3)c2)nc2cnccc12 please
Solution: ≤ 0.1 µM

Problem: Entry Cn1cnc(-c2nccc3c(O)nc(OCc4ccccc4C(F)(F)F)nc23)c1 please
Solution: 0.1 to 1 µM

Problem: Entry O=C(O)c1ccncc1NCC1CCCc2cc(Sc3ccccn3)ccc21 (centres unmarked) please
Solution: 0.1 to 1 µM

Problem: Entry COc1cc(I)ccc1COc1ccnn1-c1cc(C(=O)O)ccn1 please
Solution: 0.1 to 1 µM

Problem: Entry O=C(O)c1ccnc(-n2nccc2OC2CCc3cc(F)ccc32)c1 (centres unmarked) please
Solution: 0.1 to 1 µM

Problem: Entry CC(=O)N1CC[C@H](n2cc(Oc3nc(O)c4ccncc4n3)cn2)C1 please
Solution: ≤ 0.1 µM

Problem: Entry Cc1ccc(Sc2ccc3c(c2)CCC[C@H]3CNc2cnccc2C(=O)O)cc1 please
Solution: 1 to 10 µM

Problem: Entry CCCn1nc(Nc2cnccc2C(=O)O)c2cccc(F)c21 please
Solution: < 0.1 µM

Problem: Entry COCC(C)(C)c1ccc(N(C)c2ccc(Oc3nc(O)c4ccncc4n3)cc2)cc1 please
Solution: 1 to 10 µM

Problem: Entry O=C(c1ccc(F)cc1)N1CCC(n2cc(Oc3nc(O)c4ccncc4n3)cn2)CC1 please
Solution: ≤ 0.1 µM

Problem: Entry CC(C)c1cccc(Oc2nc(O)c3ccncc3n2)c1 please
Solution: 0.1 to 1 µM

Problem: Entry CC[C@H](C)c1ccc(N(C)c2ccc(Oc3nc(O)c4ccncc4n3)cc2)cc1 please
Solution: 1 to 10 µM

Problem: Entry CN(c1ccc(Oc2nc(O)c3ccncc3n2)cc1)c1ccc(C2=CCOCC2)cc1 please
Solution: 1 to 10 µM

Problem: Entry Oc1nc(Oc2cnn([C@@H]3CCNC3)c2)nc2cnccc12 please
Solution: ≤ 0.1 µM

Problem: Entry Cn1cnc(-c2nccc3c(O)nc(OCC4CCOCC4)nc23)c1 please
Solution: ≤ 0.1 µM

Problem: Entry Oc1nc(OCC2CC2)nc2cnccc12 please
Solution: 0.1 to 1 µM

Problem: Entry CC(C)(C)OC(=O)Nc1cccc(Oc2nc(O)c3ccncc3n2)c1 please
Solution: 0.1 to 1 µM

Problem: Entry O=C(O)c1ccnc(-n2nc(-c3cccc(Cl)c3)cc2O)c1 please
Solution: 1 to 10 µM

Problem: Entry Cc1cccc(N(C)c2ccc3c(c2)OCC[C@H]3CNc2cnccc2C(=O)O)c1 please
Solution: 0.1 to 1 µM

Problem: Entry Cn1cnc(-c2cc(-c3nn[nH]n3)ccn2)c1-c1ccc(F)c(C(=O)Nc2ccccc2)c1 please
Solution: 1 to 10 µM

Problem: Entry CC(=O)OCn1nnc(-c2ccnc(-c3cn(Cc4ccccc4Cl)cn3)c2)n1 please
Solution: 1 to 10 µM

Problem: Entry CC(=O)N(C)CCOc1nc(O)c2ccncc2n1 please
Solution: 0.1 to 1 µM

Problem: Entry Cn1cnc(-c2nccc3c(O)nc(OCc4ccc(C(F)(F)F)cc4)nc23)c1 please
Solution: 0.1 to 1 µM

Problem: Entry O=C(c1ccccc1)N1CCC[C@@H](n2cc(Oc3nc(O)c4ccncc4n3)cn2)C1 please
Solution: ≤ 0.1 µM

====

Lysine-specific demethylase 4C (Homo sapiens) IC50, compiled from various sources.

Problem: Name the reported IC50 value associated with the compound CCc1ccc(N(C)c2ccc(Oc3nc(O)c4ccncc4n3)cc2)cc1N1CCN(C)CC1
Solution: ≤ 100 nM

Problem: Entry Cc1cccc(N(C)c2ccc(Oc3nc(O)c4ccncc4n3)cc2)c1 please
Solution: 100 to 1000 nM

Problem: Entry Cn1cnc(-c2cc(C(=O)O)ccn2)c1-c1ccc(C(F)(F)F)cc1 please
Solution: 1000 to 10000 nM

Problem: Entry CCn1ncc2ccc(Oc3nc(O)c4ccnc(-c5cn(C)cn5)c4n3)cc21 please
Solution: 100 to 1000 nM

Problem: Entry O=C(c1ccccc1)N1CC[C@@H](n2cc(Oc3nc(O)c4ccncc4n3)cn2)C1 please
Solution: ≤ 100 nM

Problem: Entry CN(c1ccc2c(c1)OCC[C@H]2CNc1cnccc1C(=O)O)c1ccc2occc2c1 please
Solution: 100 to 1000 nM
